- Protocol notes: Pharmacokinetics and distribution in brain tissue in rats
- Assay type: in vivo, Sprague Dawley rats
- Stated conditions: Sprague-Dawley, rat, plasma, po, 5 mg/kg, SD rats, PO 5.00 mg/kg, mean
Endpoint label: half-life

Returns the measured half-life for the input molecule. Input: C#CCN(Cc1ccc(F)cc1)c1cc(C)c(NC(=O)OC)c(C)c1 [Compound K43]
4.56 h

---

- Protocol notes: Pharmacokinetics and distribution in brain tissue in rats
- Format: in vivo, Sprague Dawley rats
- Stated conditions: Sprague-Dawley, rat, plasma, iv, 0.5 mg/kg, SD rats, IV 0.500 mg/kg, plasma, individual animals IV-1 to IV-3; read-out: AUC0-inf
Endpoint label: AUC(0-inf) (ng·h/mL)
Number in ng·h/mL, nothing else.

Request the reported AUC(0-inf) associated with `C#CCN(Cc1ccc(F)cc1)c1cc(C)c(NC(=O)OC)c(C)c1`
221

---

- Protocol notes: Pharmacokinetics and distribution in brain tissue in mice
- Assay type: in vivo, ICR mice
- Stated conditions: male, ICR, mouse, po; mice, intragastric perfusion 5 mg/kg, plasma
Where a name gives a salt, the structure may show the parent alone.
Endpoint label: Tmax (min)
Provide the reading as a plain figure in min.

May I ask what Tmax has been recorded for C#CCN(Cc1ccc(F)cc1)c1cc(C)c(NC(=O)OC)c(C)c1.Cl [K43•HCl] ?
15

Requested read-out: Tmax. Entry: C#CCN(Cc1ccc(F)cc1)c1ccc(NC(=O)OC)c(C)c1 [K41•HCl]
15

---

- Protocol notes: Pharmacokinetics and distribution in brain tissue in rats
- Format: in vivo, Sprague Dawley rats
- Stated conditions: Sprague-Dawley, rat, brain, po, 5 mg/kg, SD rats, PO 5.00 mg/kg, brain tissue; read-out: Cmax
- Description: After K43 was administered to Sprague Dawley rats via intravenous injection or oral administration, blood sample and brain tissue were collected at different time points. the concentration of K43 in plasma and brain of rats after administration of the compounds was analyzed by LC-MS/MS and used to calculate the pharmacokinetic parameters, evaluating the oral bioavailability and distribution in brain tissue of K43 in rats. 24 SD rats, which were provided by SHANGHAI SLAC LABORATORY ANIMAL CO. […]
Endpoint label: Cmax

Given the compound C#CCN(Cc1ccc(F)cc1)c1cc(C)c(NC(=O)OC)c(C)c1 [Compound K43] , what is its reported Cmax?
366 ng/g

---

- Protocol notes: Pharmacokinetics and distribution in brain tissue in mice
- Assay type: in vivo, ICR mice
- Stated conditions: male, ICR, mouse; mice, intravenous injection 2 mg/kg, plasma
Counter-ions that a name gives are not always drawn.
Endpoint label: clearance

Which clearance is listed for C#CCN(Cc1ccc(F)cc1)c1ccc(NC(=O)OC)c(C)c1 [K41•HCl] ?
114 mL/min/kg

Suppose we examine the molecule C#CCN(Cc1ccc(F)cc1)c1cc(C)c(NC(=O)OC)c(C)c1.Cl [K43•HCl] ; what clearance value has been reported?
100 mL/min/kg

---

- Protocol notes: Pharmacokinetics and distribution in brain tissue in mice
- Assay type: in vivo, ICR mice
- Stated conditions: male, ICR, mouse; mice, intravenous injection 2 mg/kg, plasma
- Experimental: K43.HCl was formulated to a 0.5 mg/ml solution for intragastric perfusion by using 5% DMSO/5% Tween80/[…] physiological saline; to a 0.2 mg/ml solution for intravenous injection by diluting the above solution for intragastric perfusion with physical saline containing 1% Tween 80. […] Pharmacokinetic parameters after administration were calculated according to the obtained data of plasma concentration, using the non-compartmental model of Phoenix 1.3 software (Pharsight Co., USA).
Where a name gives a salt, the structure may show the parent alone.
Kindly supply the reported half-life values for the records listed here.
Include the unit after the number when you answer.

Reported half-life for C#CCN(Cc1ccc(F)cc1)c1ccc(NC(=O)OC)c(C)c1 [K41•HCl] : what is it?
29.4 min

Any idea what its half-life is? The molecule is C#CCN(Cc1ccc(F)cc1)c1cc(C)c(NC(=O)OC)c(C)c1.Cl [K43•HCl]
24 min

---

- Protocol notes: Pharmacokinetics and distribution in brain tissue in rats
- Type: in vivo, Sprague Dawley rats
- Stated conditions: Sprague-Dawley, rat, brain, po, 5 mg/kg, SD rats, PO 5.00 mg/kg, brain tissue
Endpoint label: half-life (min)
Numeric answer only, unit min assumed.

For `C#CCN(Cc1ccc(F)cc1)c1cc(C)c(NC(=O)OC)c(C)c1` , what is its reported half-life?
768

---

- Protocol notes: Pharmacokinetics and distribution in brain tissue in rats
- Assay type: in vivo, Sprague Dawley rats
- Stated conditions: Sprague-Dawley, rat, plasma; SD rats, PO 5.00 mg/kg, mean; read-out: F (oral bioavailability)
Endpoint label: bioavailability (%)
Write the answer as a number in %, unit excluded.

Form field: reported bioavailability of `C#CCN(Cc1ccc(F)cc1)c1cc(C)c(NC(=O)OC)c(C)c1`
32.2

---

- Protocol notes: Pharmacokinetics and distribution in brain tissue in mice
- Format: in vivo, ICR mice
- Stated conditions: male, ICR, mouse; mice, intravenous injection 2 mg/kg, plasma; read-out: Vss
Structures can show the parent of a compound that is named as a salt.
Please provide measured Vd for the entries that follow.
Give just the number in L/kg; leave the unit off.

// Vd lookup, key: C#CCN(Cc1ccc(F)cc1)c1ccc(NC(=O)OC)c(C)c1 [K41•HCl]
3.04

Please report the recorded Vd for C#CCN(Cc1ccc(F)cc1)c1cc(C)c(NC(=O)OC)c(C)c1.Cl [K43•HCl] .
2.61

---

- Protocol notes: Pharmacokinetics and distribution in brain tissue in mice
- Type: in vivo, ICR mice
- Stated conditions: male, mouse, plasma, oral; ICR mice, intragastric perfusion 5 mg/kg vs intravenous 2 mg/kg; read-out: F (oral bioavailability)
Structures can show the parent of a compound that is named as a salt.
Endpoint label: bioavailability (%)
Enter your answer as a number in %; do not include the unit.

Recorded bioavailability of C#CCN(Cc1ccc(F)cc1)c1cc(C)c(NC(=O)OC)c(C)c1.Cl [K43•HCl] , please.
22.5

Which value of bioavailability has been reported for C#CCN(Cc1ccc(F)cc1)c1ccc(NC(=O)OC)c(C)c1 [K41•HCl] in the records?
91.9

---

- Protocol notes: Pharmacokinetics and distribution in brain tissue in rats
- Type: in vivo, Sprague Dawley rats
- Stated conditions: Sprague-Dawley, rat, plasma, iv, 0.5 mg/kg, SD rats, IV 0.500 mg/kg, plasma, mean; read-out: VdSS
Endpoint label: Vd (L/kg)
Express it in L/kg; write the number only.

Which Vd is listed for `C#CCN(Cc1ccc(F)cc1)c1cc(C)c(NC(=O)OC)c(C)c1` ?
2.76

---

- Assayed target: KCNQ2 homotetramer channel (Homo sapiens)
- Construct: expressed in transfected cells; host or cells: CHO-K1
- Sequence (O43526 whole entry): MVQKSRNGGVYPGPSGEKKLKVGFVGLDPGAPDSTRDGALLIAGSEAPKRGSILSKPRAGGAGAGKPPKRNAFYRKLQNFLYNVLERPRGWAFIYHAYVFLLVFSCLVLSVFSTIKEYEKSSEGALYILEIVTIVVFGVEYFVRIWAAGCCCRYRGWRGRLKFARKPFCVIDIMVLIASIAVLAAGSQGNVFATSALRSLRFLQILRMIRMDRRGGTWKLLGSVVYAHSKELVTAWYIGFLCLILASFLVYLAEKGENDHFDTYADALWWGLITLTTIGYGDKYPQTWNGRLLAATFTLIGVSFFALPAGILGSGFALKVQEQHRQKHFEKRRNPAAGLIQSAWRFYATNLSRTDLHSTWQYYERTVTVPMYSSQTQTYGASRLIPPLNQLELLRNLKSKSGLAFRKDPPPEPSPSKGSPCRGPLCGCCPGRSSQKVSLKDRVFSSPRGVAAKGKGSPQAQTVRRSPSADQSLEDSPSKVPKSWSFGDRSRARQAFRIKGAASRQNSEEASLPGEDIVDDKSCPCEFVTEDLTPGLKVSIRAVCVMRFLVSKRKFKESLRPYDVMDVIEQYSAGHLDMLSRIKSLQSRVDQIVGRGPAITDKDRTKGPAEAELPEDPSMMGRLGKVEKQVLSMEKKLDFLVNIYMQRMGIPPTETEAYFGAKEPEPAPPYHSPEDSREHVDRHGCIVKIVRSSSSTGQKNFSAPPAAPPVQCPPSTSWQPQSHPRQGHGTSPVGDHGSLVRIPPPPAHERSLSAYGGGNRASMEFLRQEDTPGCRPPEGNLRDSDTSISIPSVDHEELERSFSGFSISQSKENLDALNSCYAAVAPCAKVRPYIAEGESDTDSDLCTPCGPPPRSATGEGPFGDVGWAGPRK
- Protocol notes: KCNQ2 channel dose-response curve in CHO-K1 cells transfected with KCNQ2 plasmid
- Assay type: cell-based
- Stated conditions: FIG. 1, Boltzmann fit; read-out: EC50
- Protocol: The culture medium for Chinese hamster oocytes (CHO-K1) (Culture Collection of Chinese Academy of Sciences): 50/50 DMEM/F-12 (Cellgro, Manassas, Va.), added with 10% fetal bovine serum (FBS) (Gibco, Australia) and 2 mM L-glutamic acid (Invitrogen). Expression of KCNQ channels: 24 h before transfection, CHO-K1 spreaded on a dish with a diameter of 60 mm. Lipofectamine 2000™ agent (Invitrogen) was used for Transfection according to the protocol thereof. […]
Endpoint label: pEC50
Friendly reminder that pEC50 comes from taking -log10 of the concentration in mol/L.

What pEC50 value was documented for this molecule, `C#CCN(Cc1ccc(F)cc1)c1cc(C)c(NC(=O)OC)c(C)c1` ?
8.82

---

- Protocol notes: Pharmacokinetics and distribution in brain tissue in rats
- Type: in vivo, Sprague Dawley rats
- Stated conditions: Sprague-Dawley, rat, plasma, iv, 0.5 mg/kg, SD rats, IV 0.500 mg/kg, plasma, mean; read-out: AUC0-inf
Endpoint label: AUC(0-inf) (ng·h/mL)
Express it in ng·h/mL; write the number only.

Sample C#CCN(Cc1ccc(F)cc1)c1cc(C)c(NC(=O)OC)c(C)c1 [Compound K43] — what was its AUC(0-inf)?
233

---

- Protocol notes: Pharmacokinetics and distribution in brain tissue in rats
- Format: in vivo, Sprague Dawley rats
- Stated conditions: Sprague-Dawley, rat, plasma, iv, 0.5 mg/kg, SD rats, IV 0.500 mg/kg, mean
- Method: After K43 was administered to Sprague Dawley rats via intravenous injection or oral administration, blood sample and brain tissue were collected at different time points. the concentration of K43 in plasma and brain of rats after administration of the compounds was analyzed by LC-MS/MS and used to calculate the pharmacokinetic parameters, evaluating the oral bioavailability and distribution in brain tissue of K43 in rats. 24 SD rats, which were provided by SHANGHAI SLAC LABORATORY ANIMAL CO. […]
Endpoint label: half-life

So what's the measured half-life for this one? `C#CCN(Cc1ccc(F)cc1)c1cc(C)c(NC(=O)OC)c(C)c1`
1.41 h
